Reported pIC50 by item:
- TEST DESCRIPTION: Displacement of dansyl-polymyxin from LPS
- Type: binding, P. aeruginosa
- SETUP CONDITIONS: read-out: LPS binding affinity: peptide concentration to displace 50% of dansyl-polymyxin B from LPS; Tables 1, 4, 7
pIC50: −log10 of the molar value.
OBSERVED PROPERTY: pIC50

[
  {
    "SMILES STR": "CC(C)C[C@@H]1NC(=O)[C@H](CCCCN)NC(=O)[C@H](C(C)C)NC(=O)[C@H](CCCCN)NC(=O)[C@@H]2CCCN2C(=O)[C@@H](Cc2ccc(O)cc2)NC(=O)[C@H](CCCCN)NC(=O)[C@H](CC(C)C)NC(=O)[C@H](CCCCN)NC(=O)[C@H](C(C)C)NC(=O)[C@@H](CCCCN)NC(=O)[C@@H]2CCCN2C(=O)[C@@H](Cc2ccc(O)cc2)NC(=O)[C@H](CCCCN)NC1=O",
    "MEASURED VALUE": 4.37
  },
  {
    "SMILES STR": "CC(C)C[C@@H]1NC(=O)[C@H](CCCCN)NC(=O)[C@H](C(C)C)NC(=O)[C@@H]2CCCN2C(=O)[C@@H](Cc2ccc(O)cc2)NC(=O)[C@H](CC(C)C)NC(=O)[C@H](CCCCN)NC(=O)[C@H](C(C)C)NC(=O)[C@H](CCCCN)NC(=O)[C@H](CC(C)C)NC(=O)[C@@H]2CCCN2C(=O)[C@@H](Cc2ccc(O)cc2)NC(=O)[C@H](C(C)C)NC(=O)[C@@H](CCCCN)NC1=O",
    "MEASURED VALUE": 4.03
  }
]

###

- System: human erythrocytes
- TEST DESCRIPTION: Hemolytic activity
- Assay type: cell-based
- Protocol: Serial dilutions of the peptides in saline were prepared in round bottom microtitre plates using 100 μL volumes. Red blood cells were diluted with saline to 1/25 packed volume of cells and 50 μL added to each well. Plates were incubated with rocking at 37° C., and the concentration required for complete lysis determined visually after 4 h.
Where a SMILES comes first, the peptide text is derived from it. [ ]: non-standard residue; d: D form. Orn = NCCC[C@H](N)C(=O)O

[
  {
    "COMPOUND": "CC(C)C[C@@H]1NC(=O)[C@H](CCCCN)NC(=O)[C@H](C(C)C)NC(=O)[C@@H]2CCCN2C(=O)[C@@H](Cc2ccc(O)cc2)NC(=O)[C@H](CC(C)C)NC(=O)[C@H](CCCCN)NC(=O)[C@H](C(C)C)NC(=O)[C@H](CCCCN)NC(=O)[C@@H]2CCCN2C(=O)[C@@H](Cc2ccc(O)cc2)NC(=O)[C@H](CCCCN)NC1=O [GS12]",
    "Hemolytic activity, µg/mL": 250
  },
  {
    "COMPOUND": "CC(C)C[C@@H]1NC(=O)[C@H](CCCN)NC(=O)[C@H](CC(C)C)NC(=O)[C@@H]2CCCN2C(=O)[C@@H](Cc2ccccc2)NC(=O)[C@H](CC(C)C)NC(=O)[C@H](CCCN)NC(=O)[C@H](CC(C)C)NC(=O)[C@H](CCCN)NC(=O)[C@@H]2CCCN2C(=O)[C@@H](Cc2ccccc2)NC(=O)[C@H](CCCN)NC1=O [GS12FO/LL, FPLOLOFPOLOL] (cyclo(L[Orn]L[Orn][dF]P[Orn]L[Orn]L[dF]P))",
    "Hemolytic activity, µg/mL": 170
  }
]
